study-target: BRD4 BD2 (Homo sapiens)
assay-remarks: AlphaScreen binding assay, BRD4 Bromodomain 2
pIC50: −log10 of the molar value.
result-type: pIC50

>>> df
                             compound_smiles             study_target  result_type  value_observed
 0  CC(=O)N1c2ccc(-c3ccc(S(=O)(=O)NCCO)cc3)cc2N(C(=O)OC2CCCCC2)C[C@@H]1C  BRD4 BD2 (Homo sapiens)        pIC50          > 7.30
 1  CC(=O)N1c2cc(N)c(-c3ccc(S(C)(=O)=O)cc3)cc2N(C(=O)OC(C)C)C[C@@H]1C  BRD4 BD2 (Homo sapiens)        pIC50          < 6.30
 2  CC(=O)N1c2ccc(-c3ccc(S(C)(=O)=O)cc3)cc2N(C(=O)Nc2ccc(C)cc2)C[C@@H]1C  BRD4 BD2 (Homo sapiens)        pIC50    6.30 to 7.30
 3  COC(=O)N1c2ccc(-c3cnn(CCC#N)c3)cc2N(C(=O)Oc2cccnc2)C[C@@H]1C  BRD4 BD2 (Homo sapiens)        pIC50    6.30 to 7.30
 4  CC(=O)N1c2ccc(-c3ccc(S(=O)(=O)CC4CC4)cc3)cc2N(C(=O)OC2CCOCC2)C[C@@H]1C  BRD4 BD2 (Homo sapiens)        pIC50    6.30 to 7.30
 5  CC(=O)N1c2ccc(-c3cnn(CC(C)(C)O)c3)cc2N(C(=O)OC2CCC(F)(F)CC2)C[C@@H]1C  BRD4 BD2 (Homo sapiens)        pIC50    6.30 to 7.30
 6  CC(=O)N1c2ccc(-c3cnn(-c4ccccc4)c3)cc2N(C(=O)OC(C)C)C[C@@H]1C  BRD4 BD2 (Homo sapiens)        pIC50          < 6.30
 7  CC(=O)N1c2ccc(-c3cnn(Cc4cc(C)no4)c3)cc2N(C(=O)OC(C)C)C[C@@H]1C  BRD4 BD2 (Homo sapiens)        pIC50          > 7.30
 8  CC(=O)N1c2ccc(-c3cnn(C)c3C)cc2N(C(=O)c2ccco2)C[C@@H]1C  BRD4 BD2 (Homo sapiens)        pIC50    6.30 to 7.30
 9  COC(=O)N1c2ccc(-c3cnn(C4CC4)c3)cc2N(C(=O)OC2CCOCC2)C[C@@H]1C  BRD4 BD2 (Homo sapiens)        pIC50    6.30 to 7.30
10  CC(=O)N1c2ccc(-c3ccc(CN4CCCS4(=O)=O)cc3)cc2N(C(=O)c2ccco2)C[C@@H]1C  BRD4 BD2 (Homo sapiens)        pIC50          > 7.30
11  COC(=O)N1c2ccc(-c3cnn(CCO)c3)cc2N(C(=O)Oc2cccnc2)C[C@@H]1C  BRD4 BD2 (Homo sapiens)        pIC50          < 6.30
12  CC(=O)N1c2ccc(-c3ccnc(C(F)(F)F)c3)cc2N(C(=O)c2ccco2)C[C@@H]1C  BRD4 BD2 (Homo sapiens)        pIC50    6.30 to 7.30
13  CC(=O)N1c2ccc(-c3cnn(Cc4cnccn4)c3)cc2N(C(=O)C2CC2)C[C@@H]1C  BRD4 BD2 (Homo sapiens)        pIC50    6.30 to 7.30
14  COc1ncc(-c2ccc3c(c2)N(C(=O)c2ccco2)C[C@H](C)N3C(C)=O)cn1  BRD4 BD2 (Homo sapiens)        pIC50    6.30 to 7.30
